The entries below are paired with their reported viability, T/C.
System: DMS-114 complex spheroids with HUVEC/MSC, growth % test/control
Experiment: Anticancer human tumor DMS-114 cell line growth inhibition [AhR];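 also: spheroids exposed to agents for 7 days before readout; 100% = DMSO vehicle control wells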
Conditions: second compound 1 µM; first compound 0.316 µM; hits give low values

Example entries and their recorded answers appear below.
# molecule, target.or.test.system, measurement.name, result.value
data = [
    ("COc1cc(C2c3cc4c(cc3C(OC3OC5COC(C)OC5C(O)C3O)C3COC(=O)C23)OCO4)cc(OC)c1O (centres undefined) + Cc1cncc(-c2nc(NCCc3c[nH]c4ccccc34)c3ncn(C(C)C)c3n2)c1", "DMS-114 complex spheroids with HUVEC/MSC, growth % test/control", "viability, T/C", "54.6%"),
    ("COc1cccc2c1C(=O)c1c(O)c3c(c(O)c1C2=O)CC(O)(C(=O)CO)CC3OC1CC(N)C(O)C(C)O1 (centres undefined) + Cc1cncc(-c2nc(NCCc3c[nH]c4ccccc34)c3ncn(C(C)C)c3n2)c1", "DMS-114 complex spheroids with HUVEC/MSC, growth % test/control", "viability, T/C", "4.86%"),
    ("O=C(c1cc(Cc2n[nH]c(=O)c3ccccc23)ccc1F)N1CCN(C(=O)C2CC2)CC1 + CC(CO)NC(=O)c1cc(-c2ccc(Cl)cc2)nn(-c2cnn(C)c2)c1=O", "DMS-114 complex spheroids with HUVEC/MSC, growth % test/control", "viability, T/C", "118%"),
    ("O=C(c1cc(Cc2n[nH]c(=O)c3ccccc23)ccc1F)N1CCN(C(=O)C2CC2)CC1 + Cc1cncc(-c2nc(NCCc3c[nH]c4ccccc34)c3ncn(C(C)C)c3n2)c1", "DMS-114 complex spheroids with HUVEC/MSC, growth % test/control", "viability, T/C", "76.1%"),
    ("O=C(C=Cc1cccc(S(=O)(=O)Nc2ccccc2)c1)NO + CC(CO)NC(=O)c1cc(-c2ccc(Cl)cc2)nn(-c2cnn(C)c2)c1=O", "DMS-114 complex spheroids with HUVEC/MSC, growth % test/control", "viability, T/C", "61.1%"),
    ("COc1cc(Nc2ncc3c(n2)-c2ccc(Cl)cc2C(c2c(F)cccc2OC)=NC3)ccc1C(=O)O + CC(CO)NC(=O)c1cc(-c2ccc(Cl)cc2)nn(-c2cnn(C)c2)c1=O", "DMS-114 complex spheroids with HUVEC/MSC, growth % test/control", "viability, T/C", "63.6%"),
    ("COc1cc(Nc2ncc3c(n2)-c2ccc(Cl)cc2C(c2c(F)cccc2OC)=NC3)ccc1C(=O)O + Cc1cncc(-c2nc(NCCc3c[nH]c4ccccc34)c3ncn(C(C)C)c3n2)c1", "DMS-114 complex spheroids with HUVEC/MSC, growth % test/control", "viability, T/C", "41.7%"),
    ("Nc1ncn(C2CC(O)C(CO)O2)c(=O)n1 (centres undefined) + Cc1cncc(-c2nc(NCCc3c[nH]c4ccccc34)c3ncn(C(C)C)c3n2)c1", "DMS-114 complex spheroids with HUVEC/MSC, growth % test/control", "viability, T/C", "86.4%"),
]

Measured viability, T/C (DMS-114 complex spheroids with HUVEC/MSC, growth % test/control), entry COc1cccc2c1C(=O)c1c(O)c3c(c(O)c1C2=O)CC(O)(C(=O)CO)CC3OC1CC(N)C(O)C(C)O1 (centres undefined) + Cc1ccccc1N=Nc1ccc(NC(=O)c2ccnn2C)c(C)c1 : 18.3%

Known value: DMS-114 complex spheroids with HUVEC/MSC, growth % test/control viability, T/C of the molecule NS(=O)(=O)OCC1CC(n2ccc3c(NC4CCc5ccccc54)ncnc32)CC1O (centres undefined) + Cc1cncc(-c2nc(NCCc3c[nH]c4ccccc34)c3ncn(C(C)C)c3n2)c1 equals 17.6%

Assay DMS-114 complex spheroids with HUVEC/MSC, growth % test/control, sample CC1COCCN1c1cc(-c2ccnn2C)c2ccnc(-c3ccn[nH]3)c2n1 (centres undefined) + Cc1ccccc1N=Nc1ccc(NC(=O)c2ccnn2C)c(C)c1 , viability, T/C read: 57.4%

# lookup: NS(=O)(=O)OCC1CC(n2ccc3c(NC4CCc5ccccc54)ncnc32)CC1O (centres undefined) + Cc1ccccc1N=Nc1ccc(NC(=O)c2ccnn2C)c(C)c1 on DMS-114 complex spheroids with HUVEC/MSC, growth % test/control, viability, T/C = 32%

CC1COCCN1c1cc(C2(S(C)(=N)=O)CC2)nc(-c2ccnc3[nH]ccc23)n1 (centres undefined) + Cc1ccccc1N=Nc1ccc(NC(=O)c2ccnn2C)c(C)c1 on DMS-114 complex spheroids with HUVEC/MSC, growth % test/control gives viability, T/C = 90.6%

// returns viability, T/C for COc1ccc([C@@H](O)c2cc(-c3ncnc4cc(N5CCOCC5)ccc34)c(F)cc2Cl)nn1 + Cc1ccccc1N=Nc1ccc(NC(=O)c2ccnn2C)c(C)c1 with DMS-114 complex spheroids with HUVEC/MSC, growth % test/control; value = 94.6%

// returns viability, T/C for CC1COCCN1c1cc(C2(S(C)(=N)=O)CC2)nc(-c2ccnc3[nH]ccc23)n1 (centres undefined) + Cc1cncc(-c2nc(NCCc3c[nH]c4ccccc34)c3ncn(C(C)C)c3n2)c1 with DMS-114 complex spheroids with HUVEC/MSC, growth % test/control; value = 114%

# value of viability, T/C, DMS-114 complex spheroids with HUVEC/MSC, growth % test/control, item Nc1ccn(C2OC(CO)C(O)C2(F)F)c(=O)n1 (centres undefined) + CC(CO)NC(=O)c1cc(-c2ccc(Cl)cc2)nn(-c2cnn(C)c2)c1=O = 14.4%

Observed viability, T/C, DMS-114 complex spheroids with HUVEC/MSC, growth % test/control, NS(=O)(=O)OCC1CC(n2ccc3c(NC4CCc5ccccc54)ncnc32)CC1O (centres undefined) + CC(CO)NC(=O)c1cc(-c2ccc(Cl)cc2)nn(-c2cnn(C)c2)c1=O : 16.3%

Tested system DMS-114 complex spheroids with HUVEC/MSC, growth % test/control; viability, T/C recorded for Nc1ccccc1NC(=O)c1ccc(CNC(=O)OCc2cccnc2)cc1 + Cc1cncc(-c2nc(NCCc3c[nH]c4ccccc34)c3ncn(C(C)C)c3n2)c1 was 64.2%

DMS-114 complex spheroids with HUVEC/MSC, growth % test/control viability, T/C of Nc1ccccc1NC(=O)c1ccc(CNC(=O)OCc2cccnc2)cc1 + Cc1ccccc1N=Nc1ccc(NC(=O)c2ccnn2C)c(C)c1 is 90%

Simply: O=C(C=Cc1cccc(S(=O)(=O)Nc2ccccc2)c1)NO + Cc1ccccc1N=Nc1ccc(NC(=O)c2ccnn2C)c(C)c1 , DMS-114 complex spheroids with HUVEC/MSC, growth % test/control, viability, T/C = 94.7%

Record Nc1ccn(C2OC(CO)C(O)C2(F)F)c(=O)n1 (centres undefined) + Cc1ccccc1N=Nc1ccc(NC(=O)c2ccnn2C)c(C)c1 has DMS-114 complex spheroids with HUVEC/MSC, growth % test/control viability, T/C equal to 26.5%

Result for CC(C)c1c(-c2ccccc2)nc2c(C#N)c[nH]n2c1=O + Cc1ccccc1N=Nc1ccc(NC(=O)c2ccnn2C)c(C)c1 , tested on DMS-114 complex spheroids with HUVEC/MSC, growth % test/control, viability, T/C: 102%

viability, T/C on DMS-114 complex spheroids with HUVEC/MSC, growth % test/control for COc1cc(C2c3cc4c(cc3C(OC3OC5COC(C)OC5C(O)C3O)C3COC(=O)C23)OCO4)cc(OC)c1O (centres undefined) + Cc1ccccc1N=Nc1ccc(NC(=O)c2ccnn2C)c(C)c1 is 84.4%

Assay DMS-114 complex spheroids with HUVEC/MSC, growth % test/control, sample CC1(C)CCC(CN2CCN(c3ccc(C(=O)NS(=O)(=O)c4ccc(NCC5CCOCC5)c([N+](=O)[O-])c4)c(Oc4cnc5[nH]ccc5c4)c3)CC2)=C(c2ccc(Cl)cc2)C1 + Cc1ccccc1N=Nc1ccc(NC(=O)c2ccnn2C)c(C)c1 , viability, T/C read: 113%

---

Below: a set of entries, each annotated with reported viability, T/C.
Test system: DMS-114 complex spheroids with HUVEC/MSC, growth % test/control
Test: Anticancer human tumor DMS-114 cell line growth inhibition [AhR];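 also: spheroids exposed to agents for 7 days before readout; 100% = DMSO vehicle control wells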
Conditions: second compound 0.1 µM; first compound 0.000316 µM; hits give low values
Entry rule: numbers only, all in %.

Sample answers from the record:
# compound, target.or.test.system, unit, viability, T/C
rows = [
    ("Cn1ncnc1C1c2n[nH]c(=O)c3cc(F)cc(c23)NC1c1ccc(F)cc1 (stereo unspecified) + CC(CO)NC(=O)c1cc(-c2ccc(Cl)cc2)nn(-c2cnn(C)c2)c1=O", "DMS-114 complex spheroids with HUVEC/MSC, growth % test/control", "%", 103),
    ("Cn1ncnc1C1c2n[nH]c(=O)c3cc(F)cc(c23)NC1c1ccc(F)cc1 (stereo unspecified) + Cc1ccccc1N=Nc1ccc(NC(=O)c2ccnn2C)c(C)c1", "DMS-114 complex spheroids with HUVEC/MSC, growth % test/control", "%", 118),
    ("CC[C@@]1(O)C(=O)OCc2c1cc1n(c2=O)Cc2cc3c(CN(C)C)c(O)ccc3nc2-1 + Cc1ccccc1N=Nc1ccc(NC(=O)c2ccnn2C)c(C)c1", "DMS-114 complex spheroids with HUVEC/MSC, growth % test/control", "%", 99.3),
    ("CC[C@@]1(O)C(=O)OCc2c1cc1n(c2=O)Cc2cc3c(CN(C)C)c(O)ccc3nc2-1 + CC(CO)NC(=O)c1cc(-c2ccc(Cl)cc2)nn(-c2cnn(C)c2)c1=O", "DMS-114 complex spheroids with HUVEC/MSC, growth % test/control", "%", 101),
]

Value of measured viability, T/C for the entry CC[C@@]1(O)C(=O)OCc2c1cc1n(c2=O)Cc2cc3c(CN(C)C)c(O)ccc3nc2-1 + Cc1cncc(-c2nc(NCCc3c[nH]c4ccccc34)c3ncn(C(C)C)c3n2)c1 : 93.4

viability, T/C for Cn1ncnc1C1c2n[nH]c(=O)c3cc(F)cc(c23)NC1c1ccc(F)cc1 (stereo unspecified) + Cc1cncc(-c2nc(NCCc3c[nH]c4ccccc34)c3ncn(C(C)C)c3n2)c1 is 103

Data origin: PubChem BioAssay AID1919008
